# test-target: atypical adenosine A2A receptors
# measurement-protocol: Displacement of [3H]CGS21680 binding in rat striatum in the presence of CSC (atypical sites)
# cond: Figure 3; rat striatum; 200 nmol/L CSC; (95% CI)
metric: IC50 (µM)
Value expressed in µM; do not type the unit.

Consider the molecule shown here: CCCCc1nc(N)c2nc(-n3nccn3)n(C)c2n1 What is its recorded IC50?
0.256

###

# test-target: atypical adenosine A2A receptors
# measurement-protocol: Displacement of [3H]CGS21680 binding in rat hippocampus in the presence of CSC (atypical sites)
# cond: read-out: Ki values (nM) in hippocampus, Atypical; rat hippocampal membranes; in the presence of CSC; mean (95% CI)
metric: Ki (nM)
// return numeric value only (unit: nM, not printed)

Dear colleague, I am looking for the recorded Ki of the following compound: CCCCc1nc(N)c2nc(-n3nccn3)n(C)c2n1 [ST1535]
146

###

# test-target: atypical adenosine A2A receptors
# measurement-protocol: Displacement of [3H]CGS21680 binding in rat striatum in the presence of CSC (atypical sites)
# cond: rat striatal membranes; in the presence of CSC; mean (95% CI)
metric: Ki (nM)
I only need the number, in nM, no unit after it.

Requested field: Ki. Item: CCCCc1nc(N)c2nc(-n3nccn3)n(C)c2n1
73

###

# test-target: total adenosine A2A receptors (Rattus norvegicus)
# Sequence (P30543 whole entry): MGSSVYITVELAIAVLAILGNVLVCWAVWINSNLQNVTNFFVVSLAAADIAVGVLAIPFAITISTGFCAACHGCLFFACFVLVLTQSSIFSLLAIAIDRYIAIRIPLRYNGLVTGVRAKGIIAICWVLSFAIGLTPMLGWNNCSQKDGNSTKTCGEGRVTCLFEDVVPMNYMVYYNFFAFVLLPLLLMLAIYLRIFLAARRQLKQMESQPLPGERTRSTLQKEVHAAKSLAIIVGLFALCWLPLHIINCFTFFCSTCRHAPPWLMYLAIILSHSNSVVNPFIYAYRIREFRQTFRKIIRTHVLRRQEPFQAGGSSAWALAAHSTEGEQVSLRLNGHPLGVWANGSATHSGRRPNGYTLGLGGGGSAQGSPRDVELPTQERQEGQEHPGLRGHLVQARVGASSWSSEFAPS
# measurement-protocol: Displacement of [3H]CGS21680 binding in rat striatal membranes, compounds alone (total)
metric: IC50 (nM)
Supply the numeric figure in nM, leaving out any unit text.

Which IC50 value belongs to Nc1nc2c(cnn2CCc2ccccc2)c2nc(-c3ccco3)nn12 [SCH58261, reference compound] ?
16.7
